Experiment: self-splicing fitness, log relative to wild type (ln ratio); higher = more splicing; Tetrahymena group I intron in knt gene, E. coli kanamycin selection, DiMSum; sequences stand for … in CUCUCU…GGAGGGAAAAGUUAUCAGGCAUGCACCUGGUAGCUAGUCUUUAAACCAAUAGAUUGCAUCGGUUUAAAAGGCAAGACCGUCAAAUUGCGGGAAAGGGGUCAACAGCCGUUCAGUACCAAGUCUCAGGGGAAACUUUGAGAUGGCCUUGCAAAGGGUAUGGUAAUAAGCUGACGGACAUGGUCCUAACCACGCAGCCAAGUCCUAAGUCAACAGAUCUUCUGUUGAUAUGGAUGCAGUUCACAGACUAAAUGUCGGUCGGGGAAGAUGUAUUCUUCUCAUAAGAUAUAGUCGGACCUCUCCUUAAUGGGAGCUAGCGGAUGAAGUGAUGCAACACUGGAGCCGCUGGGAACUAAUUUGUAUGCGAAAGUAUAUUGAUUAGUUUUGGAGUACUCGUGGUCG;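 also: selection with 25 µg/mL kanamycin versus none on LB agar overnight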
Details: 37 °C
Recorded measurements of self-splicing fitness (ln), one per entry
readoutType: self-splicing fitness (ln)

[[record]]
seq = "CCGCAGCAAUAUUACGUACA"
measured = -2.4

[[record]]
seq = "AGAAAGCAAUAUUACGUUGG"
measured = -0.323

[[record]]
seq = "GUAGAGCAAUAUUACGGACC"
measured = 0.305

[[record]]
seq = "UAGUAGCAAUAUUACGUGAU"
measured = -2.18

[[record]]
seq = "CGGGAGCAAUAUUACGAGCG"
measured = -1.19

[[record]]
seq = "CGGAAGCAAUAUUACGGCCU"
measured = 0.152

[[record]]
seq = "GGGCAGCAAUAUUACGGAUA"
measured = -1.8

[[record]]
seq = "UGGCAGCAAUAUUACGUGAA"
measured = -0.431

[[record]]
seq = "UAGAAGCAAUAUUACGAGUG"
measured = -0.505

[[record]]
seq = "CUUAAGCAAUAUUACGGUAC"
measured = -3.27

[[record]]
seq = "CGCUAGCAAUAUUACGCGCU"
measured = -2.75

[[record]]
seq = "GUAGAGCAAUAUUACGGUGG"
measured = -0.894

[[record]]
seq = "GCGCAGCAAUAUUACGUAUU"
measured = -0.709

[[record]]
seq = "AUGCAGCAAUAUUACGCGAC"
measured = -0.372

[[record]]
seq = "AAAAAGCAAUAUUACGGCCC"
measured = 0.00498

[[record]]
seq = "CUCCAGCAAUAUUACGCGAU"
measured = -2.24

